Answer each item with its documented half-life at 1 μM.
protocol-description: Human plasma stability
Format: in vitro ADME
condition-parameters: 37° C.
Lab book: enter the figure in s, no units written.

Data request: Give the reported half-life at 1 μM for this compound. CCCCOc1nc(N)c2[nH]c(=O)n(CCCN(CCCN3CCCCC3)Cc3cccc(CC(=O)OC)c3)c2n1 [Comparative Example 1, reference compound]
Data returned: 12

Data request: Give the reported half-life at 1 μM for this compound. CCCCOc1nc(N)c2[nH]c(=O)n(CCCN(CCCN3CCCCC3)Cc3ccc(CC(=O)OC)cc3)c2n1
Data returned: 36
